# Tested on: Myzus persicae
# run.description: whole plant or invertebrate
# Type: in vivo
# condition.parameters: Myzus persicae, 24 h; 0.8 g/ha; after 1 d; read-out: Kill rate in % after 1 d

compound: CCc1nn(C)c(C(=O)NCc2ccc(C(C)(C)C)cc2)c1Cl
pest or weed control at 0.8 g/ha, %: 0
--
compound: O=[N+]([O-])NC1=NCCN1Cc1ccc(Cl)nc1
pest or weed control at 0.8 g/ha, %: 0
--
compound: Cc1c(COC(=O)[C@@H]2[C@H](/C=C(\Cl)C(F)(F)F)C2(C)C)cccc1-c1ccccc1 (racemic)
pest or weed control at 0.8 g/ha, %: 80
--
compound: CC1(C)[C@H](C(=O)O[C@H](C#N)c2cccc(Oc3ccccc3)c2)[C@@H]1C=C(Br)Br
pest or weed control at 0.8 g/ha, %: 0
--
compound: CC1(C)[C@H](C(=O)O[C@H](C#N)c2cccc(Oc3ccccc3)c2)[C@@H]1/C=C\C(=O)OC(C(F)(F)F)C(F)(F)F
pest or weed control at 0.8 g/ha, %: 0
